System: U2OS
Experiment: Multiplex assay against U2OS
Type: toxicity, cell-based
Conditions: human, 12 h, 10 µM, compound concentration 10 uM, replicate 1
Each entry below carries its recorded Total Cell Count.

Ask: I am curious: what Total Cell Count value has been reported for COc1cc2ncnc(Nc3ccc(F)c(Cl)c3)c2cc1NC(=O)/C=C/CN1CCCCC1 [DACOMITINIB ANHYDROUS] ?
Result: 182

Ask: I am curious: what Total Cell Count value has been reported for `CCc1cccc(CC)c1NC(=O)c1nn(C)c2c1CCc1cnc(Nc3ccc(N4CCN(C)CC4)cc3OC)nc1-2` ?
Result: 143

Ask: I am curious: what Total Cell Count value has been reported for `C=CCn1c(=O)c2cnc(Nc3ccc(N4CCN(C)CC4)cc3)nc2n1-c1cccc(C(C)(C)O)n1` ?
Result: 167

Ask: I am curious: what Total Cell Count value has been reported for `Cc1cc(C)c(S(=O)(=O)N(Cc2ccc(-c3cccc(S(C)(=O)=O)c3)cc2)Cc2ccc(C(F)(F)F)o2)c(C)c1` ?
Result: 104
